These entries and their values trace back to patent US8242109B2.

# SYSTEM_TESTED: F1F0-ATPase (Bos taurus, UniProt P13621)
# Construct: from tissue; host or cells: bovine sub-mitochondrial particles (SMPs)
# EXPERIMENT_SUMMARY: Inhibition of ATP synthesis and hydrolysis by the F1F0-ATPase
# Format: biochemical
pIC50: −log10 of the molar value.
Listed below: pIC50 values for each entry.

> print(dat)
                                   compound                             system.tested  recorded.value
1  Cc1cccc(CC2N=C(c3ccc(O)cc3)c3cc(Cl)ccc3N(C)C2=O)c1 (centres unmarked)  F1F0-ATPase (Bos taurus, UniProt P13621)          < 5.00
2  O=C1Nc2ccc(Cl)cc2C(c2ccc(O)cc2)=NC1Cc1ccccc1Cl (centres unmarked)  F1F0-ATPase (Bos taurus, UniProt P13621)          > 5.30
3  CN1C(=O)C(Cc2cccc(Cl)c2)N=C(c2ccc(O)cc2)c2cc(Cl)ccc21 (centres unmarked)  F1F0-ATPase (Bos taurus, UniProt P13621)          < 5.00

Req: Input CC(C)c1cccc(CC2N=C(c3ccc(O)cc3)c3cc(Cl)ccc3N(C)C2=O)c1 (centres unmarked) , output reported pIC50.
Resp: 5.00 to 5.30

Req: Input CC(C)c1ccc(CC2N=C(c3ccc(O)cc3)c3cc(Cl)ccc3NC2=O)cc1 (centres unmarked) , output reported pIC50.
Resp: 5.00 to 5.30

Req: Input Cc1ccc(CC2N=C(c3ccc(O)cc3)c3cc(Cl)ccc3NC2=O)cc1 (centres unmarked) , output reported pIC50.
Resp: 5.00 to 5.30

Req: Input CCc1ccc(CC2N=C(c3ccc(O)cc3)c3cc(Cl)ccc3NC2=O)cc1 (centres unmarked) , output reported pIC50.
Resp: 5.00 to 5.30
